- assay.info: Effect of temperature (and pH) on the stability of the solution (purity)
- Type: physicochemical
- condition: 7% solution in water, pH 8.0, day 21, 5° C.
Examples of molecules with documented Purity(%) at day 21 (5° C.) follow.
The response must be a number in % with no trailing unit.

# return recorded Purity(%) at day 21 (5° C.) for entry CCN(CC)CCOC(=O)Cc1ccc(C(=O)c2ccc(C)cc2)n1C.Cl
78.1

# return recorded Purity(%) at day 21 (5° C.) for input CCN(CC)CCOC(=O)COc1nn(Cc2ccccc2)c2ccccc12.Cl
77.5

Identify Purity(%) at day 21 (5° C.) associated with the molecule CCN(CC)CCOC(=O)C(C)c1ccc2oc(-c3ccc(Cl)cc3)nc2c1.Cl (stereo not shown)
78.7

Now for the molecule whose Purity(%) at day 21 (5° C.) we want.
Hello, please tell me recorded Purity(%) at day 21 (5° C.) for this one: CCN(CC)CCOC(=O)CC1=C(C)C(=Cc2ccc([S+](C)[O-])cc2)c2ccc(F)cc21.Cl (stereo not shown)
77.1

---

- assay.info: Effect of concentration on the stability of the solution (purity over time)
- condition: 10 wt %; in water at 25° C.
endpoint: Purity at Day 7 (%)
Give just the numeric value; % need not be written.

Here's what some known entries look like.
Indicate the recorded Purity at Day 7 value for this compound: CCN(CC)CCOC(=O)Cc1ccc(C(=O)c2ccc(C)cc2)n1C.Cl
97.5

Return reported Purity at Day 7. Input compound: CCN(CC)CCOC(=O)Cc1c(C)n(C(=O)c2ccc(Cl)cc2)c2ccc(OC)cc12.Cl
98.3

Continuing:
Output measured Purity at Day 7 for this item: CCN(CC)CCOC(=O)CCc1nc(-c2ccccc2)c(-c2ccccc2)o1.Cl
98.5

Annotate the compound CCN(CC)CCOC(=O)C(C)c1ccc2oc(-c3ccc(Cl)cc3)nc2c1.Cl (stereo not shown) with its measured Purity at Day 7.
98.3

---

- assay.info: Effect of temperature (and pH) on the stability of the solution (purity)
- Type: physicochemical
- condition: 7% solution in water, pH 1.0, day 21, 40° C.
Measured Purity(%) at day 21 (40° C.) accompanies every entry in the list below.
Write the value in % as a bare number.

Worked examples follow.
Please report the measured Purity(%) at day 21 (40° C.) for CCN(CC)CCOC(=O)Cc1c(C)n(C(=O)c2ccc(Cl)cc2)c2ccc(OC)cc12.Cl
15.3

Annotate the molecule CCN(CC)CCOC(=O)CCc1nc(-c2ccccc2)c(-c2ccccc2)o1.Cl with its measured Purity(%) at day 21 (40° C.).
7.9

Hello, please tell me recorded Purity(%) at day 21 (40° C.) for this one: CCN(CC)CCOC(=O)Cc1ccc(C(=O)c2ccc(C)cc2)n1C.Cl
9.4

New cases:
Identify Purity(%) at day 21 (40° C.) associated with the molecule CCN(CC)CCOC(=O)COc1nn(Cc2ccccc2)c2ccccc12.Cl
9.1

---

- assay.info: Effect of temperature (and pH) on the stability of the solution (purity)
- Type: physicochemical
- condition: 7% solution in water, pH 4.0, day 21, 60° C.
endpoint: Purity (%) at day 21 (60° C.)
Express your answer in %, writing the number without its unit.

Note down Purity (%) at day 21 (60° C.) recorded for CCN(CC)CCOC(=O)C(C)c1ccc(-c2ccccc2)c(F)c1.Cl (racemic)
22.4

Further cases:
Quickly give me recorded Purity (%) at day 21 (60° C.) for CCN(CC)CCOC(=O)CC1=C(C)C(=Cc2ccc([S+](C)[O-])cc2)c2ccc(F)cc21.Cl (centres unmarked)
19.7

Identify the reported Purity (%) at day 21 (60° C.) for the following entry. CCN(CC)CCOC(=O)CCc1ccc2cc(OC)ccc2c1.Cl
23.6

State its Purity (%) at day 21 (60° C.) for this molecule: CCN(CC)CCOC(=O)Cc1c(C)n(C(=O)c2ccc(Cl)cc2)c2ccc(OC)cc12.Cl
19.6

Retrieve Purity (%) at day 21 (60° C.) measured for CCN(CC)CCOC(=O)CCc1nc(-c2ccccc2)c(-c2ccccc2)o1.Cl and print it.
20.2
